Recorded IC50, one value per entry.
Target: recombinant N-terminal MLH1 (residues 15-340) (Homo sapiens)
Construct: recombinant N-terminal MLH1 (residues 15-340)
Sequence (P40692 15-340): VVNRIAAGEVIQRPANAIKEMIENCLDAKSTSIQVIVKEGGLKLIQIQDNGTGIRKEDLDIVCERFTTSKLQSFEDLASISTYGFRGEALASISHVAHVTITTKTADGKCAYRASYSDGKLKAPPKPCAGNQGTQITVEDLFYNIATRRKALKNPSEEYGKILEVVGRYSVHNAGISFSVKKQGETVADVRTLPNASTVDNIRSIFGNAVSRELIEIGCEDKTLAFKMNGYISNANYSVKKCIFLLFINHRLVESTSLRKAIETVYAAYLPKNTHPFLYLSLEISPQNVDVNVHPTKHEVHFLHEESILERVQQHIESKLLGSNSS
Experiment: Fluorescence Polarisation Assay for MLH1
Conditions: 100 nM N-terminal MLH1, 5 nM probe compound

The reported value for O=C(c1c(O)cc(C(F)F)cc1OCc1ccccc1)N1CCc2ncnc(NC3CCOC3)c2C1 (stereo not shown) [Example 27.20] in terms of IC50 is 0.1 to 1 µM

The reported value for O=C(c1c(O)cc(C(F)F)cc1OCc1ccccc1)N1Cc2ccc(Oc3ccncc3)cc2C1 [Example 4.60] in terms of IC50 is 0.1 to 1 µM

The reported value for CNc1cccc2c1CN(C(=O)c1c(O)cc(C(F)F)cc1OCc1ccccc1)C2 [Example 4.34] in terms of IC50 is 1 to 10 µM
